# credit: paper PMC11367503

# Target Or Test System: human Gal-3 (Homo sapiens)
# Construct: made in house; host or cells: Escherichia coli BL21 (DE3)
# Sequence (P17931 whole entry): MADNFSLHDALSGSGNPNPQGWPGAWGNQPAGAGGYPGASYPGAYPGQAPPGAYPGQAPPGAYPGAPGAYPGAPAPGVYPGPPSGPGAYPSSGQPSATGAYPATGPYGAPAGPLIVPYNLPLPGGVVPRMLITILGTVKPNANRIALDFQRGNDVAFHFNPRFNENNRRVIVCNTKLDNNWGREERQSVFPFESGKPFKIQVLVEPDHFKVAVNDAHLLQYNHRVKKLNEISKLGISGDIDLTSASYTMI
# Assay Details: Isothermal titration calorimetry (ITC), Gal-3
# Type: binding
# Cond: Gal-3, PBS, 298 K, n fixed to 1.00
pKd: −log10 of the molar value.
Endpoint Name: pKd

(P) CC(=O)NC1C(OC2C(O)C(CO)OC(OC3C(CO)OC(O)C(O)C3O)C2O)OC(CO)C(OC2OC(CO)C(O)C(O)C2O)C1O (centres unmarked)
(Q) CC(=O)NC1C(OC2C(O)C(CO)OC(OC3C(CO)OC(OC4C(O)C(CO)OC(OC5C(CO)OC(OC6C(O)C(CO)OC(OC7C(CO)OC(O)C(O)C7O)C6O)C(NC(C)=O)C5O)C4O)C(NC(C)=O)C3O)C2O)OC(CO)C(OC2OC(CO)C(O)C(O)C2O)C1O (centres unmarked)
Look at P and Q . Which one has the lower recorded pKd number? When you have decided, please share the label of that item.
P

====

The following are reported pIC50 results, target or system human Gal-7 (Homo sapiens, UniProt P47929).
pIC50: −log10 of the molar value.
Endpoint Name: pIC50

| Molecule | Target Or Test System | pIC50 |
| --- | --- | --- |
| CC(=O)NC1C(O)OC(CO)C(OC2OC(CO)C(O)C(O)C2O)C1OC1OC(C)C(O)C(O)C1O (stereo not drawn) [Le^X, Lewis X trisaccharide] | human Gal-7 (Homo sapiens, UniProt P47929) | 1.82 |

(I) CC(=O)NC1C(O)OC(CO)C(OC2OC(CO)C(O)C(OC3OC(CO)C(O)C(O)C3NC(C)=O)C2OC2OC(C)C(O)C(O)C2O)C1O (stereo not drawn) [BGA2, blood group A antigen 2]
(II) CC1OC(OC2C(OC3C(CO)OC(O)C(O)C3O)OC(CO)C(O)C2O)C(O)C(O)C1O (stereo not drawn)
Which value of pIC50 is greater, the one for I or the one for II ? // output: label of the selected item
I
(I: 2.66, II: 2.08)
